Assay: qHTS Assay for Lipid Storage Modulators in Drosophila S3 Cells
Settings: BODIPY lipid droplet fluorescence, 18-24 h, cells fed with added oleic acid; series mostly up to 46.1 µM
The whole screen tested about 320,000 compounds, of which about 2,100 (0.66%) were called active. Roughly 53% stayed inconclusive and do not appear here. Calls follow the shape of the dose curve; as a rule, active = well fitted inhibition curve with a large enough effect in the signal ratio, with a control signal flat (not every such curve was filed as active); inconclusive = small, poorly fitted or top-dose-only effect, or effect the other way, or a change in a side signal; inactive = flat fitted curve, though single readings scatter; the % refers to the signal ratio. This excerpt belongs to a sample that is enriched for actives.
A correct response names exactly one class from active, inactive

See these solved cases before continuing.
CC(C)(C)c1ccc(C(=O)NCc2ccccc2)cc1 :: inactive
NC(=O)Cn1cc(/C=N\NS(=O)(=O)c2cccc([N+](=O)[O-])c2)c2ccccc21 :: inactive
Cc1ccc(-n2c(O)c(/C=N/n3cnnc3)c3ccccc3c2=O)cc1 :: inactive
COCCCNC(=O)c1ccccc1-c1cc(C)no1 :: inactive
O=C(CN(c1ccccc1)S(=O)(=O)c1ccccc1)N/N=C/c1ccco1 :: inactive

Just curious, what result did Cc1cc[n+](CC(=O)N2CCCc3ccccc32)cc1 get here? inactive

Next entry: CC(=O)NC(c1ccccc1)c1c(O)ccc2ccccc12 (stereo not given) inactive

Thanks! And O=C(/C=C/c1cccc([N+](=O)[O-])c1)NCCN1C(=O)S/C(=C\c2ccc(F)cc2)C1=O ? inactive

Item: COc1ccc(C(=O)OCC(=O)NCCCc2ccccc2)c(OC)c1 inactive

Now try CC(=O)OCn1nnc2ccccc2c1=O . inactive

====

Experiment: qHTS Assay for Lipid Storage Modulators in Drosophila S3 Cells
Settings: BODIPY lipid droplet fluorescence, 18-24 h, cells fed with added oleic acid; series mostly up to 46.1 µM
The campaign covered roughly 320,000 compounds. About 2,100 (0.66%) were called active. Another 53% or so got no clear call; they are omitted. Calls come from the whole dose curve; as a rule, active = well fitted inhibition curve with a large enough effect in the signal ratio, with a control signal flat (not every such curve was filed as active); inconclusive = small, poorly fitted or top-dose-only effect, or effect the other way, or a change in a side signal; inactive = flat fitted curve, though single readings scatter; the % refers to the signal ratio. Only a selection was taken, and actives are over-represented in it overall.
In this exercise, the only acceptable responses are active, inactive

See these solved cases before continuing.
CCN(CC)S(=O)(=O)c1ccc(N2CCOCC2)c(NC(=O)CN2C(=O)NC(C)(c3ccccc3)C2=O)c1 (stereo not given) :: inactive
CN(C(=O)CC1C(=O)NCCN1Cc1ccc(F)c(F)c1)C1CCOCC1 (stereo not given) :: inactive
O=C(NCc1ccccn1)c1ccc2c(=O)n3nc(Nc4ccccc4)sc3nc2c1 :: active
C/C(Cn1nnc([N+](=O)[O-])n1)=N\NC(=O)c1ccc(C)cc1 :: inactive
O=C(CCC(=O)c1ccccc1)NCCc1c[nH]c2ccccc12 :: inactive

What classification did CCCCSc1nc(O)c(C2OC(=O)c3c2ccc(OC)c3OC)c(=O)n1-c1ccccc1 (stereo not given) end up with in this test? inactive

Proceed to CCOc1ccccc1N=C1SC(CC(=O)Nc2ccc(OC)cc2OC)C(=O)N1CCC1=CCCCC1 (stereo not given) active

Can you check COc1ccc(/C=C/c2c([N+](=O)[O-])c(=O)n(C)c(=O)n2C)cc1OC next? inactive

Next: COC(=O)c1ccc(NC(=S)N2CCCC2)cc1 inactive

// query: Cc1nc2ccc(NC(=S)NC(C)C)cc2nc1C inactive

====

Test: qHTS Assay for Lipid Storage Modulators in Drosophila S3 Cells;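 as to cell number change: cells counted by Cell Tracker Red CMTPX staining in the red channel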
Conditions: BODIPY lipid droplet fluorescence, 18-24 h, cells fed with added oleic acid; measured here: cell count max response
The campaign covered roughly 320,000 compounds. About 2,100 (0.66%) were called active. Roughly 53% stayed inconclusive and do not appear here. What follows is part of a selection rich in actives, with near analogues and random picks from the rest.
Each entry below lists one item and its recorded cell number change value.
Report the value in % with no unit label.

Sample records with cell number change:
COc1ccccc1OCC(=O)Nc1cc(NC(=O)COc2ccccc2OC)cc(C(=O)O)c1 :: -10.7
O=C1CC2(CCN(C(=O)c3ccc(Br)cc3)CC2)Oc2ccccc21 :: -15.2
CC1CN(c2ccc([N+](=O)[O-])cc2F)CCN1C(=O)c1ccco1 (stereo unspecified) :: -3.23

Looking for the measured cell number change of COc1cccc(C2CCCN2Cc2nc(CC3CC3)no2)c1 (stereo unspecified) , can you help? -10.7

And for O=C(O)c1cc(N=Nc2c(O)ccc3ccccc23)cc(C(=O)O)c1 ? 0.308

Do the same for Nc1oc2ccccc2c(=O)c1-c1ccc2c(c1)OCO2 please 5.77

Likewise for N#Cc1c(-c2ccc3c(c2)OCO3)cc[nH]c1=O ? 17.2
